Reference source for all entries: PubChem BioAssay (NCI)

Tested on: NCI-H522 lung
Assay: NCI-60 one-dose screen, 48 h
Settings: 10 µM unless noted
This is part of a sample that, as a whole, favours compounds with a hit. Of some 83,000 tested, about 20% had one in any assay. Calls of active or inactive are those of the source. How the source made its calls: active means growth percent below 10; inactive means the rest.
Your response should consist of one outcome taken from 1.0 = active, 0.0 = inactive

// known answers, use as guide
CCCCCCCCCCCCCCCC(=O)OCC1OC(n2cnc3c(=S)nc(N)[nH]c32)C(OC(=O)CCCCCCCCCCCCCCC)C1OC(=O)CCCCCCCCCCCCCCC (stereo not given): 0.0
Cn1cc(-c2csc(-c3cn(C)c4ncccc34)n2)c2ccccc21: 1.0
O=C1Nc2ccccc2C12CC(c1ccccc1)=NN2 (stereo not given): 0.0
CSc1nc(NCCO)c(C#N)c(-c2cccc(N)c2)n1: 0.0
COc1cc2c(c(OC)c1OC)-c1ccc(N=NC(N)=S)c(=O)cc1[C@@H](NC(C)=O)CC2: 1.0
COc1ccccc1N1CCN(CCn2c(=O)c3c(c4ccccc4n3C)n(C)c2=O)CC1: 0.0
O=C(CN1CCN(c2cc3c(cc2F)c(=O)c(C(=O)O)cn3C2CC2)CC1)Nc1nc(-c2ccccc2)cs1: 0.0
Cc1ccc(S(=O)(=O)n2cc(-c3csc(-c4cn(C)c5ncccc45)n3)c3ccccc32)cc1: 0.0

Q) Given OCCNCCNc1c2ccccc2nc2ccccc12 , state the outcome it received in this test.
A) 0.0

Q) Given CNc1nc(C)c(-c2nc(Nc3cccc(S(N)(=O)=O)c3)ncc2F)s1 , state the outcome it received in this test.
A) 1.0

Q) Given O=C(COc1cccc(/C=C2/Oc3ccccc3C2=O)c1)Nc1nccs1 , state the outcome it received in this test.
A) 1.0
